Assay: Quantitative High-Throughput drug screen in 47 multiple myeloma cell lines against the NCATS MIPE library collection: NCIH929_DSMZ cell viability assay (AID 1918978); note: nearly all actives have a fitted effect of over 35% in size
Settings: NCI-H929 myeloma viability, CellTiter-Glo ATP, 48 h; series mostly up to 45.8 µM
Text: PI: Beverly A. Mock Ph.D. Laboratory of Cancer Biology and Genetics, Center for Cancer Research, National Cancer Institute, National Institute of Health, Bethesda, Maryland […] 5; Detector; 425V; Luminescence; Viewlux PerkinElmer. […] 1. […] Briefly, the corresponding myeloma cell lines were screened in 1,536-well plates with 500 cells, 5-uL per well for inhibition of cell viability (assessed by measuring ATP levels with CellTiterGlo). […]
Results filed as inconclusive are left out. Active and inactive are the calls of the source. Calls come from the whole dose curve; as a rule, active = well fitted cell-killing curve with a large enough effect; inconclusive = small, poorly fitted or top-dose-only effect; inactive = no such curve, though single readings can be large or run the other way.
Classes to choose from: t = active, f = inactive

Before answering, review these 3 worked examples.
CC=CC(=O)N(CC)c1ccccc1C f
COc1ccc(-c2cc(=O)c3c(O)cc(O)cc3o2)cc1O t
Clc1ccc(-c2nc3sccn3c2C=NOCc2ccc(Cl)c(Cl)c2)cc1 f

Request: What did this assay record as the result for `O=c1cc(-c2cccc3c2Sc2ccccc2S3)oc(N2CCOCC2)c1` ?
Result: t
